# System: Dkk1-LRP5-TCF-Luciferase
# method: Functional Dkk1-LRP5-TCF-Luciferase Assay in U2OS Cells
# assay_setup: maximum fold induction over DMSO control
Recorded A = MAX FOLD Induction/DMSO CONTROL by entry
Could you give me the number in fold? Just the number is fine.

O=C(c1ccccc1)N1CCC(Nc2nccc(-c3ccc4ccccc4c3)n2)CC1 = 1.490
CN1CCN(c2nccc(-c3ccc4ccccc4c3)n2)CC1 = 2.960
c1ccc2cc(-c3ccnc(N4CC[C@H](N5CCNCC5)C4)n3)ccc2c1 = 7.520
CN(C)C(=O)N1CCC(Nc2nccc(-c3ccc4ccccc4c3)n2)CC1 = 1.810
CCOC(=O)N1CCCN(c2nccc(-c3ccc4ccccc4c3)n2)CC1 = 1.790
O=C(c1ccco1)N1CCN(c2nccc(-c3ccc4ccccc4c3)n2)CC1 = 1.630

## Input Requested field: A = MAX FOLD Induction/DMSO CONTROL. Item: OC1CCN(CC2CCN(c3nccc(-c4ccc5ccccc5c4)n3)C2)CC1 (stereo not shown)
## Output 2.680

## Input Requested field: A = MAX FOLD Induction/DMSO CONTROL. Item: c1cncc(CNc2nccc(-c3ccc4ccccc4c3)n2)c1
## Output 1.960

## Input Requested field: A = MAX FOLD Induction/DMSO CONTROL. Item: NC(=O)N1CCC(Nc2nccc(-c3ccc4ccccc4c3)n2)CC1
## Output 3.552

====

# Tested on: Dkk1-LRP5-TCF-Luciferase
# method: Functional Dkk1-LRP5-TCF-Luciferase Assay in U2OS Cells
# assay_setup: maximum fold induction over DMSO control
Threshold rule: A = MAX FOLD Induction/DMSO CONTROL greater than or equal to 2 fold is rule met; below that, rule not met.

Known results for molecules:
CCN(CC)C(=O)N1CCCN(c2nccc(-c3ccc4ccccc4c3)n2)CC1 = rule met
CN(C)[C@H]1CCN(C(=O)[C@@H]2CCCN2c2nccc(-c3ccc4ccccc4c3)n2)C1 = rule met
NC[C@H]1CCCN(c2nccc(-c3ccc4ccccc4c3)n2)CC1 = rule met

## Input Given O[C@@H]1CCCN(CC2CCN(c3nccc(-c4ccc5ccccc5c4)n3)C2)C1 (stereo partly shown) , state whether its A = MAX FOLD Induction/DMSO CONTROL is at least 2 fold.
## Output rule met

## Input Given CC(N)C1CCN(c2nccc(-c3ccc4ccccc4c3)n2)CC1 (stereo not shown) , state whether its A = MAX FOLD Induction/DMSO CONTROL is at least 2 fold.
## Output rule met

## Input Given c1ccc2cc(-c3ccnc(N4CC[C@@H](CN5CCCC5)C4)n3)ccc2c1 , state whether its A = MAX FOLD Induction/DMSO CONTROL is at least 2 fold.
## Output rule met

## Input Given CN(C)C(=O)N1CCCN(c2nccc(-c3ccc4ccccc4c3)n2)CC1 , state whether its A = MAX FOLD Induction/DMSO CONTROL is at least 2 fold.
## Output rule not met

## Input Given CNCC1CCN(c2nccc(-c3ccc4ccccc4c3)n2)CC1 , state whether its A = MAX FOLD Induction/DMSO CONTROL is at least 2 fold.
## Output rule met

## Input Given NCC1CCN(c2cncc(-c3ccc4ccccc4c3)n2)CC1 , state whether its A = MAX FOLD Induction/DMSO CONTROL is at least 2 fold.
## Output rule met

## Input Given OCCC1CCN(c2nccc(-c3ccc4ccccc4c3)n2)CC1 , state whether its A = MAX FOLD Induction/DMSO CONTROL is at least 2 fold.
## Output rule not met

## Input Given CCNC(=O)N1CCC(Nc2nccc(-c3ccc4ccccc4c3)n2)CC1 , state whether its A = MAX FOLD Induction/DMSO CONTROL is at least 2 fold.
## Output rule met

## Input Given CN(C)[C@@H]1CCN(C(=O)[C@@H]2CCCN2c2nccc(-c3ccc4ccccc4c3)n2)C1 , state whether its A = MAX FOLD Induction/DMSO CONTROL is at least 2 fold.
## Output rule met

## Input Given NC(=O)C1CCCN(c2nccc(-c3ccc4ccccc4c3)n2)C1 (stereo not shown) , state whether its A = MAX FOLD Induction/DMSO CONTROL is at least 2 fold.
## Output rule met

## Input Given OC[C@H]1CCCN(c2nccc(-c3ccc4ccccc4c3)n2)C1 , state whether its A = MAX FOLD Induction/DMSO CONTROL is at least 2 fold.
## Output rule not met

## Input Given COC(=O)N1CCCN(c2nccc(-c3ccc4ccccc4c3)n2)CC1 , state whether its A = MAX FOLD Induction/DMSO CONTROL is at least 2 fold.
## Output rule not met

## Input Given c1ccc2cc(-c3ccnc(N4CC[C@@H](N5CCOCC5)C4)n3)ccc2c1 , state whether its A = MAX FOLD Induction/DMSO CONTROL is at least 2 fold.
## Output rule not met

## Input Given CCN(CCO)C[C@@H]1CCN(c2nccc(-c3ccc4ccccc4c3)n2)C1 , state whether its A = MAX FOLD Induction/DMSO CONTROL is at least 2 fold.
## Output rule met

## Input Given NCC1CCN(c2nccc(-c3ccc4ccccc4c3)n2)c2ccccc21 (stereo not shown) , state whether its A = MAX FOLD Induction/DMSO CONTROL is at least 2 fold.
## Output rule not met
